Test system: HCT116;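 note: Luminescence-based viability readout, five doses per compound, normalized against on-plate DMSO and empty-well controls, followed by dose-response curve fitting for every drug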
Procedure summary: efficacy (fitted maximal change in viability relative to DMSO control); higher = less cytotoxic (negative = loss of viability)
Study conditions: 48 h
efficacy of -60% or higher: label 1. Under -60%: label 0.

INSERT INTO assay_data (molecule, cat) VALUES
  ('Oc1ccc(/C=C/c2cc(O)cc(O)c2)cc1', 'label 1'),
  ('Cn1cc(CNCC2CCN(c3ncc(C(=O)NO)cn3)CC2)c2ccccc21', 'label 0'),
  ('CC(C)C[C@H](CO)Nc1nc(S[C@@H](C)c2ccccc2)nc2nc(N)sc12', 'label 0'),
  ('C[C@@H]1O[C@@H](O[C@@H]2C=C3CC[C@@H]4[C@H](CC[C@]5(C)[C@@H](c6ccc(=O)oc6)CC[C@]45O)[C@@]3(C)CC2)[C@H](O)[C@H](O)[C@H]1O', 'label 0');

efficacy >= -60% for CC1=C(/C=C/C(C)=C/C=C/C(C)=C/C(=O)Nc2ccc(O)cc2)C(C)(C)CCC1 [Fenretinide] ?
label 0

Quick check, efficacy >= -60%? Cn1c(Nc2ccc(C(F)(F)F)cc2)nc2cc(Oc3ccnc(-c4nc(C(F)(F)F)c[nH]4)c3)ccc21
label 0

Reported efficacy at or above -60%? O=C1NC(=O)/C(=C/c2ccc3nccnc3c2)S1
label 1

Is reported efficacy greater than or equal to -60% here: COc1ccc2cc(-c3[nH]c(-c4ccc([S+](C)[O-])cc4)nc3-c3ccncc3)ccc2c1 (stereo not given)
label 0

Determine whether measured efficacy meets or exceeds -60% for Cn1cnc2c(F)c(Nc3ccc(Br)cc3Cl)c(C(=O)NOCCO)cc21
label 0

In plain terms: is recorded efficacy at least -60% for O=C(NCCCNc1nc(Nc2cccc(NC(=O)N3CCCC3)c2)ncc1I)c1cccs1 ?
label 0

Does the molecule COc1ccc2cc(OCC3(C(=O)O)CN(C(=O)c4ccc(F)cc4)C3)ccc2c1 have recorded efficacy that is -60% or more?
label 1

Hi team, for CC1=CC2=C(O1)C(=C3OC(=O)\C=C(C)/C3=C2)C , is the recorded efficacy at or above -60%?
label 1

Check this molecule for efficacy at or above -60%: CN(C)C/C=C/C(=O)Nc1ccc(C(=O)N2CCC[C@@H](Nc3ncc(Cl)c(-c4c[nH]c5ccccc45)n3)C2)cc1
label 0
